SUBJECT_OF_TEST: T1, hBCMA (human BCMA) (Homo sapiens, UniProt Q02223)
T1 sequence (Q02223 1-184): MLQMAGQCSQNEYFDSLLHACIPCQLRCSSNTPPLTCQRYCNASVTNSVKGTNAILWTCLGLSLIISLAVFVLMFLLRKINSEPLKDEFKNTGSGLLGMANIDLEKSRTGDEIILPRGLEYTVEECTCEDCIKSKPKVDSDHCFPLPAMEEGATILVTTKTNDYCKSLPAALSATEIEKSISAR
ASSAY_INFO: Kinetics and affinity of hBCMA/human IgG interactions by SPR (Bio-Rad Proteon XPR36)
Format: binding
CONDITION_SUMMARY: human BCMA, 37° C.
REPORTED_ENDPOINT: ka Human

{"MOLECULE": "A02_Rd4_0.6 nM_C03: anti-BCMA antibody (antibody, V domains shown) VH: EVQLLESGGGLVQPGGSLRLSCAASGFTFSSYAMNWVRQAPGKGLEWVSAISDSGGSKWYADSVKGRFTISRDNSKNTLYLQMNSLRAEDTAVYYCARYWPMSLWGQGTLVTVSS VL: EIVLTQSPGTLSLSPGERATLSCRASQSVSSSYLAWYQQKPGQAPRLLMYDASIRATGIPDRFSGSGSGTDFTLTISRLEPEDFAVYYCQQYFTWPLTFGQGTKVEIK", "EXPERIMENTAL_RESULT": "4.27e+06 M⁻¹ s⁻¹"}
{"MOLECULE": "A02_Rd4_6 nM_C22: anti-BCMA antibody (antibody, V domains shown) VH: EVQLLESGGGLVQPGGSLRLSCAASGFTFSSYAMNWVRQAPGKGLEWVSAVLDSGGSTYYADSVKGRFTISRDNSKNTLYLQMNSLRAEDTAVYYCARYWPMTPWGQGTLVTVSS VL: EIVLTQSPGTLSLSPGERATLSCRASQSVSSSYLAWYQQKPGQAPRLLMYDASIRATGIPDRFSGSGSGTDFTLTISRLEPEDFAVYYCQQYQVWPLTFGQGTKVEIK", "EXPERIMENTAL_RESULT": "3.38e+06 M⁻¹ s⁻¹"}

Then there is this molecule:
Quickly give me recorded ka Human for A02_Rd4_6 nM_C04: anti-BCMA antibody (antibody, V domains shown) VH: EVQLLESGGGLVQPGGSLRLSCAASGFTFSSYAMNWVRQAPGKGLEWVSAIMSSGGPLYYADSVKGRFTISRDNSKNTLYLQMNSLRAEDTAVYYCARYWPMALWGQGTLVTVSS VL: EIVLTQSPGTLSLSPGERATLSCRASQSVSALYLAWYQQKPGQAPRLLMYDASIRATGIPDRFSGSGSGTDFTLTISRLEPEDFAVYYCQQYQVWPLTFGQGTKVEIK
4.47e+06 M⁻¹ s⁻¹
